systemUnderTest: recombinant human DPP-1 (Cathepsin C) (Homo sapiens)
measurementDescription: DPP-1 Inhibition Assay (In Vitro), fluorogenic substrate GR-AMC
experimentalContext: room temperature; 0.15 nM DPP-1, 10 uM GR-AMC, pH 7.0; average where tested multiple times
pIC50: −log10 of the molar value.
// reported pIC50 per item
measure: pIC50

{"compound": "NCCC[C@H](N)C(=O)NCCCC#Cc1cccc(OC2CCNCC2)c1 [Compound 13]", "comparisonOperator": "=", "testResult": 4.01}
{"compound": "CC[C@@H](N)C(=O)NCCCC#Cc1cccc(OC2CCNCC2)c1 [Compound 71]", "comparisonOperator": "<", "testResult": 4.00}
{"compound": "CC[C@H](N)C(=O)NCCCC#Cc1c(OC)ccc2ccccc12 [Compound 87]", "comparisonOperator": "=", "testResult": 4.89}
{"compound": "CC[C@H](N)C(=O)NCCCC#Cc1cncc2ccccc12 [Compound 89]", "comparisonOperator": "=", "testResult": 5.10}
{"compound": "CC[C@H](N)C(=O)NCCCC#Cc1ccc(NC(C)=O)cc1 [Compound 100]", "comparisonOperator": "=", "testResult": 5.20}
{"compound": "C#CC[C@H](N)C(=O)NCCCC#Cc1cccc(O[C@@H]2CCCNC2)c1 [Compound 79]", "comparisonOperator": "=", "testResult": 5.54}
{"compound": "N[C@@H](Cc1cccnc1)C(=O)NCCCC#Cc1cccc(OC2CCNCC2)c1 [Compound 33]", "comparisonOperator": "=", "testResult": 4.82}
{"compound": "CC[C@H](N)C(=O)NCCCC#Cc1c(F)ccc2ccccc12 [Compound 106]", "comparisonOperator": "=", "testResult": 5.22}
{"compound": "N[C@@H](Cc1c[nH]cn1)C(=O)NCCCC#Cc1cccc(OC2CCNCC2)c1 [Compound 20]", "comparisonOperator": "=", "testResult": 6.28}

----------
systemUnderTest: recombinant human DPP-1 (Cathepsin C) (Homo sapiens)
measurementDescription: DPP-1 Inhibition Assay (In Vitro), fluorogenic substrate GR-AMC
experimentalContext: room temperature; 0.15 nM DPP-1, 10 uM GR-AMC, pH 7.0; average where tested multiple times

{"compound": "CC[C@H](N)C(=O)NCCCC#Cc1ccc(OC)cc1 [Compound 40]", "IC50 (µM)": 0.214}
{"compound": "CC(C)[C@H](N)C(=O)NCCCC#Cc1cccc(OC2CCNCC2)c1 [Compound 16]", "IC50 (µM)": 12.8}
{"compound": "N[C@@H](Cc1cccs1)C(=O)NCCCC#Cc1cccc(OC2CCNCC2)c1 [Compound 63]", "IC50 (µM)": 0.15}
{"compound": "CC[C@H](N)C(=O)NCCCC#Cc1cccc2ccccc12 [Compound 41]", "IC50 (µM)": 2.53}
{"compound": "C#CC[C@H](N)C(=O)NCCCC#Cc1cc(OC)cc(OC2CCNCC2)c1 [Compound 7]", "IC50 (µM)": 1.6}
{"compound": "N[C@@H](CC1CC1)C(=O)NCCCC#Cc1cccc(OC2CCNCC2)c1 [Compound 11]", "IC50 (µM)": 15.3}
{"compound": "CC[C@H](N)C(=O)NCCCC#Cc1c(C)c(C)cc(C)c1C [Compound 76]", "IC50 (µM)": 14}
{"compound": "CC[C@H](N)C(=O)NCCCC#Cc1ccc2c(c1)Cc1ccccc1-2 [Compound 101]", "IC50 (µM)": 1.7}
{"compound": "CC(C)C[C@H](N)C(=O)NCCCC#Cc1cccc(OC2CCNCC2)c1 [Compound 31]", "IC50 (µM)": 30}
{"compound": "CC[C@H](N)C(=O)NCCCC#Cc1ccc(F)c(F)c1 [Compound 39]", "IC50 (µM)": 0.35}
{"compound": "CC[C@H](N)C(=O)NCCCC#Cc1ccccc1NC(C)=O [Compound 103]", "IC50 (µM)": 5.4}
{"compound": "CC[C@H](N)C(=O)NCCCC#Cc1ccc2c(c1)OCCO2 [Compound 97]", "IC50 (µM)": 5}

----------
systemUnderTest: recombinant human DPP-1 (Cathepsin C) (Homo sapiens, UniProt P53634)
Sequence (P53634 25-463): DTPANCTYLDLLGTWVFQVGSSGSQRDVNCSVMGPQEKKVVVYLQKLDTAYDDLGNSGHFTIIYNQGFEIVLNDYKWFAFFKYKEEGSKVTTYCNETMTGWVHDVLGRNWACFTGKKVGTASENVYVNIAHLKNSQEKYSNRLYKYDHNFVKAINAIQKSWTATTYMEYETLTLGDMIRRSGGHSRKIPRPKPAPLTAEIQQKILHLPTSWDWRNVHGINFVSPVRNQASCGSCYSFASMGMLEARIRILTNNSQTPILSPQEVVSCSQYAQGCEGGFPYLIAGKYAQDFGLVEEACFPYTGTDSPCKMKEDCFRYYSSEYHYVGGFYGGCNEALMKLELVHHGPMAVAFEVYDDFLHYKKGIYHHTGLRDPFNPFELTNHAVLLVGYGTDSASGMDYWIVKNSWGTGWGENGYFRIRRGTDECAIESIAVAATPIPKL
measurementDescription: DPP-1 Inhibition Assay (In Vitro), fluorogenic substrate GR-AMC
experimentalContext: room temperature; 0.15 nM DPP-1, 10 uM GR-AMC, pH 7.0; average where tested multiple times
# note: boundary value 10 µM maps to Criterion not met; IC50 below it maps to Criterion met

{"molecularString": "CC[C@H](N)C(=O)NCCCC#Cc1ccc(S(C)(=O)=O)cc1", "labelClass": "Criterion not met"}
{"molecularString": "CC[C@H](N)C(=O)NCCCC#Cc1ccccc1", "labelClass": "Criterion met"}
{"molecularString": "N[C@@H](Cc1ccccc1)C(=O)NCCCC#Cc1cccc(OC2CCNCC2)c1", "labelClass": "Criterion not met"}
{"molecularString": "CC[C@H](N)C(=O)NCCCC#Cc1ccc(C(C)C)cc1", "labelClass": "Criterion met"}
{"molecularString": "CCCC[C@H](N)C(=O)NCCCC#Cc1cccc(OC2CCNCC2)c1", "labelClass": "Criterion met"}
{"molecularString": "CCC[C@H](N)C(=O)NCCCC#Cc1cccc(OC2CCNCC2)c1", "labelClass": "Criterion met"}
{"molecularString": "CC[C@H](N)C(=O)NCCCC#Cc1c(C)cc(C)cc1C", "labelClass": "Criterion met"}
{"molecularString": "CC[C@H](N)C(=O)NCCCC#Cc1ccccc1O", "labelClass": "Criterion met"}
{"molecularString": "CC[C@H](N)C(=O)NCCCC#Cc1cccc2cnccc12", "labelClass": "Criterion not met"}
{"molecularString": "CC[C@H](N)C(=O)NCCCC#Cc1ccc(-c2ccccc2)cc1", "labelClass": "Criterion met"}
{"molecularString": "CC[C@H](N)C(=O)NCCCC#Cc1ccc2c(c1)OCO2", "labelClass": "Criterion not met"}
{"molecularString": "CC[C@H](N)C(=O)NCCCC#Cc1c(O)ccc2ccccc12", "labelClass": "Criterion not met"}
{"molecularString": "CC[C@H](N)C(=O)NCCCC#Cc1c(C)cccc1C", "labelClass": "Criterion met"}
{"molecularString": "CC[C@H](N)C(=O)NCCCC#Cc1ccc2ccccc2c1", "labelClass": "Criterion not met"}
{"molecularString": "CC[C@H](N)C(=O)NCCCC#Cc1ccc(C(F)(F)F)cc1", "labelClass": "Criterion not met"}
{"molecularString": "CC[C@H](N)C(=O)NCCCC#Cc1cc(OC)cc(OC)c1", "labelClass": "Criterion not met"}
{"molecularString": "CC[C@H](N)C(=O)NCCCC#Cc1ccccc1C1CCCCC1", "labelClass": "Criterion not met"}
{"molecularString": "CC[C@H](N)C(=O)NCCCC#Cc1ccccc1OC", "labelClass": "Criterion not met"}
{"molecularString": "CC[C@@H](N)C(=O)NCCCC#Cc1cccc(OC)c1", "labelClass": "Criterion not met"}
{"molecularString": "CC[C@H](N)C(=O)NCCCC#Cc1ccccc1-c1ccccc1", "labelClass": "Criterion met"}
{"molecularString": "CC[C@H](N)C(=O)NCCCC#Cc1ccc(OC)c(OC)c1", "labelClass": "Criterion not met"}
{"molecularString": "N[C@@H](Cn1cccn1)C(=O)NCCCC#Cc1cccc(OC2CCNCC2)c1", "labelClass": "Criterion met"}
{"molecularString": "CC[C@H](N)C(=O)NCCCC#Cc1cccc(O[C@H]2CCCNC2)c1", "labelClass": "Criterion met"}
{"molecularString": "N[C@@H](CCO)C(=O)NCCCC#Cc1cccc(OC2CCNCC2)c1", "labelClass": "Criterion met"}
{"molecularString": "CC[C@H](N)C(=O)NCCCC#Cc1ccc(F)c2ccccc12", "labelClass": "Criterion met"}
{"molecularString": "C#CC[C@H](N)C(=O)NCCCC#Cc1cccc(O[C@H]2CCCNC2)c1", "labelClass": "Criterion met"}
{"molecularString": "C=CCC[C@H](N)C(=O)NCCCC#Cc1cccc(OC2CCNCC2)c1", "labelClass": "Criterion met"}
{"molecularString": "CC[C@H](N)C(=O)NCCCC#Cc1cccc(OC2CCNCC2)c1", "labelClass": "Criterion met"}
{"molecularString": "CC[C@H](N)C(=O)NCCCC#Cc1ccccc1C(F)(F)F", "labelClass": "Criterion not met"}
{"molecularString": "CC[C@H](N)C(=O)NCCCC#Cc1cccc(O[C@@H]2CCCNC2)c1", "labelClass": "Criterion met"}
{"molecularString": "CC[C@H](N)C(=O)NCCCC#Cc1ccc(OCc2ccccc2)cc1", "labelClass": "Criterion met"}
{"molecularString": "CC[C@H](N)C(=O)NCCCC#Cc1ccc(C)c2ccccc12", "labelClass": "Criterion met"}
{"molecularString": "N[C@@H](Cc1ccccn1)C(=O)NCCCC#Cc1cccc(OC2CCNCC2)c1", "labelClass": "Criterion not met"}
